Biological target: T1, IL-15Rβ/γ complex (intermediate affinity receptor), human (human, UniProt P14784 27-551; P31785 23-369)
T1 construct: whole, on cells; Found on Mo-7 cells, which express IL-15Rβ/γ but not IL-15Rα; also called IL-15Rbeta/gamma; IL-2Rβ/γ
T1 sequence (P14784 whole entry, chain 1 of 2): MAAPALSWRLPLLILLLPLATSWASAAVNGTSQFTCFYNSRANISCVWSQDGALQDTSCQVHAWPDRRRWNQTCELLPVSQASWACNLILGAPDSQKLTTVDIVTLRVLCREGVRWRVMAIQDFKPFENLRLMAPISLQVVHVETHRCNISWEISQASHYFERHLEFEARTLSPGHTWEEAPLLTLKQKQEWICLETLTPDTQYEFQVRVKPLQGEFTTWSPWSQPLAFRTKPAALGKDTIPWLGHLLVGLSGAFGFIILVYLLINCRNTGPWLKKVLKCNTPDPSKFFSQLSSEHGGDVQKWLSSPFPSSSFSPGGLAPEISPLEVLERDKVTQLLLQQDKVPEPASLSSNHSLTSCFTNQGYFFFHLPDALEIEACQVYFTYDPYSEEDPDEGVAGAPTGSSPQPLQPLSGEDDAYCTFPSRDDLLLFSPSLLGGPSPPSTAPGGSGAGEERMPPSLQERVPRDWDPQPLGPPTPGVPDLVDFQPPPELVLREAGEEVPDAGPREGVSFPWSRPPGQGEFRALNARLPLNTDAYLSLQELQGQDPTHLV
T1 sequence (P31785 whole entry, chain 2 of 2): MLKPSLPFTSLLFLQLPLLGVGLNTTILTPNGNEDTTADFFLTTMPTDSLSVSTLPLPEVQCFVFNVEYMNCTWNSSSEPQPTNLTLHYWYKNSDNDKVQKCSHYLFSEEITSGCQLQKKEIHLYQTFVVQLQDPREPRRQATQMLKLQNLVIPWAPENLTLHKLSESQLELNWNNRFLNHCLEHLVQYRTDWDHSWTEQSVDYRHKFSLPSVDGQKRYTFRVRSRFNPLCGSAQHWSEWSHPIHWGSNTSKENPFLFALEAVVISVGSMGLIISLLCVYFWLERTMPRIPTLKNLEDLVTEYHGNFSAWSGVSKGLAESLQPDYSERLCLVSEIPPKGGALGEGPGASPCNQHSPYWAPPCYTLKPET
Assay: 125I-sIL-15Rα-sushi saturation binding to TF-1β cells in the presence of 1 nM rIL-15
VALUE KIND: Kd (nM)
Only the number, expressed in nM, is required.

Input: Give the measured Kd for sIL-15Rα-sushi (receptor, also called soluble sushi domain; not shown: Vector-encoded tag of pQE30; The protein was trapped on Ni-NTA agarose) ITCPPPMSVEHADIWVKSYSLYSRERYICNSGFKRKAGTSSLTECVLNKATNVAHWTTPSLKCIRD
Output: 3.5
